Below, each of the compounds is paired with its reported pIC50 value.
- Tested on: SARS-CoV-2
- experiment description: Antiviral activity against SARS coronavirus 2 USA/WA1/2020 infected in Calu-3 cells assessed as reduction in virus-induced cytopathic effect preincubated for 1 hr followed by viral infection and measured after 48 hrs
- Format: functional, organism-based
- measurement parameters: Severe acute respiratory syndrome coronavirus 2, USA/WA1/2020, Calu-3
Please report pIC50 as the negative decimal logarithm of the molar concentration, giving only the number.

CCCCCCCCCCOCCC(=O)O[C@H]1[C@@H](O)[C@](C#N)(c2ccc3c(N)ncnn23)O[C@@H]1CO[P@@](=O)(N[C@H](C)C(=O)OCC(CC)CC)Oc1ccccc1 = 6.74

Prompt: Please give the documented pIC50 of "CCCCCCCCCCCCCCCC(=O)O[C@H]1[C@@H](O)[C@](C#N)(c2ccc3c(N)ncnn23)O[C@@H]1CO[P@@](=O)(N[C@H](C)C(=O)OCC(CC)CC)Oc1ccccc1"
Response: 5.80

Prompt: Name the recorded pIC50 of the item "CCC(CC)COC(=O)[C@H](C)N[P@](=O)(OC[C@H]1O[C@@](C#N)(c2ccc3c(N)ncnn23)[C@H](O)[C@@H]1O)Oc1ccccc1" in your answer.
Response: 7.22
